# experimentalSystem: Human immunodeficiency virus type 1 integrase (Human immunodeficiency virus 1, UniProt Q7ZJM1)
# Sequence (Q7ZJM1 whole entry): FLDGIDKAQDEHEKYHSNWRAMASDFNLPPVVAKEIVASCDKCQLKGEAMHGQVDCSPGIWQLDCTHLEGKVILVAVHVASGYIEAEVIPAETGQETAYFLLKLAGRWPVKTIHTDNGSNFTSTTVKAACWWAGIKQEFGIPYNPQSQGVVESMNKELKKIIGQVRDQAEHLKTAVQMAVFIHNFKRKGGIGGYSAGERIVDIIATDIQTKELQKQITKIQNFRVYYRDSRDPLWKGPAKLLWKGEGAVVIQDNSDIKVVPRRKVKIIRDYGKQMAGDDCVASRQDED
readoutLabel: IC50

CC(=O)Oc1ccc(/C=C/C(=O)O[C@H]2CCCC[C@@H]2OC(=O)/C=C/c2ccc(OC(C)=O)c(OC(C)=O)c2)cc1OC(C)=O | > 333 µM
CC(=O)Oc1ccc(/C=C/C(=O)OCCOC(=O)/C=C/c2ccc(OC(C)=O)c(OC(C)=O)c2)cc1OC(C)=O | > 100 µM
CC(=O)Oc1ccc(/C=C/C(=O)NCCOC(=O)/C=C/c2ccc(OC(C)=O)c(OC(C)=O)c2)cc1OC(C)=O | > 333 µM
CC(=O)Oc1ccc(/C=C/C(=O)O[C@@H](C)[C@H](C)OC(=O)/C=C/c2ccc(OC(C)=O)c(OC(C)=O)c2)cc1OC(C)=O | > 333 µM
COC(=O)[C@@H](CNC(=O)/C=C/c1ccc(OC)c(OC)c1)NC(=O)/C=C/c1ccc(OC)c(OC)c1 | > 1000 µM

Task: Please report the measured IC50 for CC(=O)Oc1ccc(/C=C/C(=O)NCC(NC(=O)/C=C/c2ccc(OC(C)=O)c(OC(C)=O)c2)C(=O)O)cc1OC(C)=O (stereo not given)
Result: 4.1 µM

Task: Please report the measured IC50 for `COc1ccc(/C=C/C(=O)NC[C@@H](NC(=O)/C=C/c2ccc(OC)c(OC)c2)C(=O)O)cc1OC`
Result: > 1000 µM

Task: Please report the measured IC50 for `O=C(/C=C/c1ccc(O)c(O)c1)OCCOC(=O)/C=C/c1ccc(O)c(O)c1`
Result: 0.4 µM

Task: Please report the measured IC50 for `CC(=O)Oc1ccc(/C=C/C(=O)O[C@H](C(=O)O)[C@H](OC(=O)/C=C/c2ccc(OC(C)=O)c(OC(C)=O)c2)C(=O)O)cc1OC(C)=O`
Result: 33.3 µM

Task: Please report the measured IC50 for `COC(=O)[C@H](COC(=O)/C=C/c1ccc(OC(C)=O)c(OC(C)=O)c1)NC(=O)/C=C/c1ccc(OC(C)=O)c(OC(C)=O)c1`
Result: 2.8 µM
